- Test system: J774A.1 (Mouse BALB/c monocyte macrophage cell line) cells
- ASSAY_EXPLANATION: LPS-induced TNF-α secretion inhibition in J774A.1 cells
- Assay type: cell-based
- CONDITION: J774.A1, 1 μM compound, graded compared to taurodeoxycholic acid (positive control), read-out: TNF-α production inhibition grade
MEASURED_ATTRIBUTE: inhibition at 1 µM

Observe how each entry below is paired with its result.
QUERY_SMILES	MEASURED_ATTRIBUTE	VAL
CCN(CC)CCNC(=O)CC[C@@H](C)[C@H]1CC[C@H]2[C@@H]3CC[C@@H]4C[C@H](O)CC[C@]4(C)[C@H]3C[C@H](O)[C@]12C	inhibition at 1 µM	> 100%
C[C@H](CCC(=O)N(CCS(=O)(=O)O)Cc1cccnc1)[C@H]1CC[C@H]2[C@@H]3CC[C@@H]4C[C@H](O)CC[C@]4(C)[C@H]3C[C@H](O)[C@]12C	inhibition at 1 µM	< 20%
C[C@H](CCC(=O)N1CCC(S(=O)(=O)O)CC1)[C@H]1CC[C@H]2[C@@H]3CC[C@@H]4CC(=O)CC[C@]4(C)[C@H]3CC[C@]12C	inhibition at 1 µM	< 20%
C[C@H](CCC(=O)N(CCS(=O)(=O)O)c1ccccc1)[C@H]1CC[C@H]2[C@@H]3[C@H](O)C[C@@H]4C[C@H](O)CC[C@]4(C)[C@H]3C[C@H](O)[C@]12C	inhibition at 1 µM	< 20%

Here's the next entry for you.
Incoming: Can you look up the measured inhibition at 1 µM of `C[C@H](CCC(=O)N1CC[C@H](S(=O)(=O)O)C1)[C@H]1CC[C@H]2[C@@H]3[C@H](O)C[C@@H]4C[C@H](O)CC[C@]4(C)[C@H]3C[C@H](O)[C@]12C` for me?
Outgoing: < 20%
